Known pKi of a selection of molecules
TESTED_TARGET: CRD from bovine mincle (Bos taurus)
Construct: A biotin-tagged version of the CRD from bovine mincle was prepared in a bacterial expression system
EXPERIMENT: Competition binding assay: inhibition of radioiodinated Man31-bovine serum albumin binding to immobilized biotin-tagged CRD
RECORDED_CONDITIONS: inhibition of mannose-conjugated serum albumin binding to bovine mincle CRD; average ± s.d. for three independent experiments
pKi: −log10 of the molar value.
MEASUREMENT_NAME: pKi

MOLECULE	MEAS_VALUE
Cc1cc(O)cc(O)c1C(=O)OC[C@H]1O[C@H](O[C@H]2O[C@H](CO)[C@@H](O)[C@H](O)[C@H]2O)[C@H](O)[C@@H](O)[C@@H]1O	3.79
OC[C@H]1O[C@H](O[C@H]2O[C@H](CO)[C@@H](O)[C@H](O)[C@H]2O)[C@H](O)[C@@H](O)[C@@H]1O [α,α-trehalose, reference compound]	2.79
O=C(OC[C@H]1O[C@H](O[C@H]2O[C@H](COC(=O)c3ccccc3)[C@@H](O)[C@H](O)[C@H]2O)[C@H](O)[C@@H](O)[C@@H]1O)c1ccccc1	4.95
Cc1cc(O)cc(O)c1C(=O)OC[C@H]1O[C@@H](O[C@H]2O[C@H](COC(=O)c3c(C)cc(O)cc3O)[C@@H](O)[C@H](O)[C@H]2O)[C@H](O)[C@@H](O)[C@@H]1O [epi-brartemicin]	3.36
Cc1cc(O)cc(O)c1C(=O)OC[C@H]1O[C@H](O[C@H]2O[C@H](COC(=O)c3c(C)cc(O)cc3O)[C@@H](O)[C@H](O)[C@H]2O)[C@H](O)[C@@H](O)[C@@H]1O	5.26
COc1cccc(C(=O)OC[C@H]2O[C@H](O[C@H]3O[C@H](COC(=O)c4cccc(OC)c4OC)[C@@H](O)[C@H](O)[C@H]3O)[C@H](O)[C@@H](O)[C@@H]2O)c1OC	5.27

* * *

TESTED_TARGET: CRD from bovine mincle (Bos taurus)
Construct: A biotin-tagged version of the CRD from bovine mincle was prepared in a bacterial expression system; made in house; host or cells: bacterial expression system
EXPERIMENT: Competition binding assay: inhibition of radioiodinated Man31-bovine serum albumin binding to immobilized biotin-tagged CRD
RECORDED_CONDITIONS: bovine mincle CRD
MEASUREMENT_NAME: Reduction in binding affinity compared to brartemicin

MOLECULE	TESTED_TARGET	MEAS_VALUE
Cc1cc(O)cc(O)c1C(=O)OC[C@H]1O[C@@H](O[C@H]2O[C@H](COC(=O)c3c(C)cc(O)cc3O)[C@@H](O)[C@H](O)[C@H]2O)[C@H](O)[C@@H](O)[C@@H]1O [epi-brartemicin]	CRD from bovine mincle (Bos taurus)	~100 fold

* * *

TESTED_TARGET: CRD from bovine mincle (Bos taurus, UniProt E1BHM0)
Construct: A biotin-tagged version of the CRD from bovine mincle was prepared in a bacterial expression system; made in house; host or cells: bacterial expression system
Sequence (E1BHM0 78-211 limits assumed): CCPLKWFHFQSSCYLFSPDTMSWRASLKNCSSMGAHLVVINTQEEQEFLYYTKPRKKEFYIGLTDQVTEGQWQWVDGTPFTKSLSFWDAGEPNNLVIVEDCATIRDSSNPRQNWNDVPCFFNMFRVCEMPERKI
EXPERIMENT: Competition binding assay: inhibition of radioiodinated Man31-bovine serum albumin binding to immobilized biotin-tagged CRD
RECORDED_CONDITIONS: bovine mincle CRD; α,α-trehalose = 1
Method: The collection of compounds was tested in competition binding experiments with immobilized bovine mincle CRD[8] (Fig. 3a). Fig. 3 a) Data for inhibition of mannose-conjugated serum albumin binding to the CRD from bovine mincle by brartemicin and analogs. K I-values (average ± s.d. for three independent experiments) and affinities relative to α,α-trehalose. b) Top view and c) side view of highest scoring docking pose of brartemicin with bovine mincle. The Ca^2+ is coloured magenta. […]
Please enter Met where Rel. affinity (affinity relative to α,α-trehalose) is greater than or equal to 10 fold, and Not met where it is lower.

COMPOUND	CATEGORY
Cc1cc(O)cc(O)c1C(=O)OC[C@H]1O[C@@H](O[C@H]2O[C@H](COC(=O)c3c(C)cc(O)cc3O)[C@@H](O)[C@H](O)[C@H]2O)[C@H](O)[C@@H](O)[C@@H]1O [epi-brartemicin]	Not met
COc1cccc(C(=O)OC[C@H]2O[C@H](O[C@H]3O[C@H](COC(=O)c4cccc(OC)c4OC)[C@@H](O)[C@H](O)[C@H]3O)[C@H](O)[C@@H](O)[C@@H]2O)c1OC	Met
O=C(OC[C@H]1O[C@H](O[C@H]2O[C@H](COC(=O)c3ccccc3)[C@@H](O)[C@H](O)[C@H]2O)[C@H](O)[C@@H](O)[C@@H]1O)c1ccccc1	Met
OC[C@H]1O[C@H](O[C@H]2O[C@H](CO)[C@@H](O)[C@H](O)[C@H]2O)[C@H](O)[C@@H](O)[C@@H]1O [α,α-trehalose, reference compound]	Not met
